- Test system: Vero E6 EGFP cells
- METHOD DESCRIPTION: Cytotoxicity assessment in dose response without virus infection
- TEST SETTINGS: cytotoxicity in the absence of virus, Vero E6 EGFP, 33 µM to 10 nM
MEASURED PROPERTY: CC50 (µM)
Response body: numeric value in µM, unit text excluded.

Param item = `O=C(c1c2ccccc2cc2ccccc12)N1CCC(N2CCC[C@@H](C(=O)N3CCOCC3)C2)CC1` ; retrieve measured CC50.
10.2

Param item = `Cc1cccc(Nc2nc(-c3ccncc3)cs2)c1` ; retrieve measured CC50.
31.5

----------
- Tested on: SARS-CoV-2
- METHOD DESCRIPTION: microbe, parasite or virus in culture
- TEST SETTINGS: Severe acute respiratory syndrome coronavirus 2, Vero C1008, read-out: IC50 (%Confluence versus compound concentration), positive control, curve fitting example Fig. 4
MEASURED PROPERTY: pIC50
Quick note: pIC50 values are minus log10 of concentrations in mol/L.

Please state recorded pIC50 (tested on SARS-CoV-2) of CCC(CC)COC(=O)[C@H](C)N[P@](=O)(OC[C@H]1O[C@@](C#N)(c2ccc3c(N)ncnn23)[C@H](O)[C@@H]1O)Oc1ccccc1 [Remdesivir, remdesivir]
5.77

----------
- System: SARS-CoV-2
- METHOD DESCRIPTION: Primary anti-cytopathicity assay development: control compound profiling, 384-well plates
- Assay type: cell-based, Severe acute respiratory syndrome coronavirus 2
- TEST SETTINGS: Severe acute respiratory syndrome coronavirus 2, read-out: Average IC50, d4 of incubation, 4000 cells seeded; mean
MEASURED PROPERTY: IC50 (µM)
Response body: numeric value in µM, unit text excluded.

Param item = CCN(CCO)CCCC(C)Nc1ccnc2cc(Cl)ccc12 (stereo not shown) [Hydroxychloroquine, hydroxychloroquine] ; retrieve measured IC50.
21

Param item = `Cc1cccc(C)c1OCC(=O)N[C@@H](Cc1ccccc1)[C@@H](O)C[C@H](Cc1ccccc1)NC(=O)[C@H](C(C)C)N1CCCNC1=O` ; retrieve measured IC50.
11.3

Param item = `CCC(CC)COC(=O)[C@H](C)N[P@](=O)(OC[C@H]1O[C@@](C#N)(c2ccc3c(N)ncnn23)[C@H](O)[C@@H]1O)Oc1ccccc1` ; retrieve measured IC50.
3.74

Param item = CCN(CC)CCCC(C)Nc1ccnc2cc(Cl)ccc12 (stereo not shown) ; retrieve measured IC50.
13.4

----------
- Tested on: SARS-CoV-2
- METHOD DESCRIPTION: Primary anti-cytopathicity assay development: control compound profiling, 384-well plates
- Format: cell-based, Severe acute respiratory syndrome coronavirus 2
- TEST SETTINGS: Severe acute respiratory syndrome coronavirus 2, read-out: Average IC50, d5 of incubation, 8000 cells seeded; mean
MEASURED PROPERTY: IC50 (µM)
Response body: numeric value in µM, unit text excluded.

Param item = CCN(CC)CCCC(C)Nc1ccnc2cc(Cl)ccc12 (stereo not shown) [Chloroquine, chloroquine] ; retrieve measured IC50.
17.1

Param item = CCN(CCO)CCCC(C)Nc1ccnc2cc(Cl)ccc12 (stereo not shown) [Hydroxychloroquine, hydroxychloroquine] ; retrieve measured IC50.
43.6

Param item = Cc1cccc(C)c1OCC(=O)N[C@@H](Cc1ccccc1)[C@@H](O)C[C@H](Cc1ccccc1)NC(=O)[C@H](C(C)C)N1CCCNC1=O [Lopinavir, lopinavir] ; retrieve measured IC50.
21.1

Param item = CCC(CC)COC(=O)[C@H](C)N[P@](=O)(OC[C@H]1O[C@@](C#N)(c2ccc3c(N)ncnn23)[C@H](O)[C@@H]1O)Oc1ccccc1 [Remdesivir, remdesivir] ; retrieve measured IC50.
2.99
